molecular target: T1, human MSLN-FL-his protein (human, UniProt Q13421 296-580); experiment: ELISA on coated antigen, antibody 0.01 nM
T1 construct: Made in HEK293E cells, purified on nickel column; it is put last here; also called human MSLN full-length protein; hMSLN-FL-his; not shown: His tag
T1 sequence (Q13421 other isoform, or with tags, fused parts or gaps): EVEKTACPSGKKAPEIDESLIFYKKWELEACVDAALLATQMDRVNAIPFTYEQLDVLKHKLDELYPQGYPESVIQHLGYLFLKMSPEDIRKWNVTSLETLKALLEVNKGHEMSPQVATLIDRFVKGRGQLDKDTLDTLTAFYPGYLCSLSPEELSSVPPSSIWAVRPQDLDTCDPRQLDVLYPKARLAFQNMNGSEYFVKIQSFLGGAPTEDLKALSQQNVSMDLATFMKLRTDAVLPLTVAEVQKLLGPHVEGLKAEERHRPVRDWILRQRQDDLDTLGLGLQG
MEASURED METRIC: OD450 (OD)
// note: answer is a bare numeric in OD

Item S009-F8-19.21 (antibody, human IgG1, kappa, V domains shown, Human-murine chimeric antibody, human IgG1 heavy and kappa light constant regions) VH: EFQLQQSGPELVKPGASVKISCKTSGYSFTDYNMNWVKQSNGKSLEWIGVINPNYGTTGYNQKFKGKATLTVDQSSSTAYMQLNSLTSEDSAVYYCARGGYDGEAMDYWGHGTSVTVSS VL: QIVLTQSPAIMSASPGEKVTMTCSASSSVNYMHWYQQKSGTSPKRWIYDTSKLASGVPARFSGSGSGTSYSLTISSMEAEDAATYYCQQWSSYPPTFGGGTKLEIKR : provide OD450
0.4

Item S009-F8-36.12 (antibody, human IgG1, kappa, V domains shown, Human-murine chimeric antibody, human IgG1 heavy and kappa light constant regions) VH: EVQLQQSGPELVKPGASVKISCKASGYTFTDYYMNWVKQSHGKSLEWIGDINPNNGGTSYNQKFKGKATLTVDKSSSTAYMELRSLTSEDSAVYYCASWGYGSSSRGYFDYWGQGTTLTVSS VL: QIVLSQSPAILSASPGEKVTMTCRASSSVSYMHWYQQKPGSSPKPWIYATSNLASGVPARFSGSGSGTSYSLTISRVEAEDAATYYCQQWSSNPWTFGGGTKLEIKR : provide OD450
0.18

Item S009-F8-13.8 (antibody, human IgG1, kappa, V domains shown, Human-murine chimeric antibody, human IgG1 heavy and kappa light constant regions) VH: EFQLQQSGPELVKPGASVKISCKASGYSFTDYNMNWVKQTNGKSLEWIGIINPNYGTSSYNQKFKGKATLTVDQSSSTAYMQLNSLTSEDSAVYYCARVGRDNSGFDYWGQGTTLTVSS VL: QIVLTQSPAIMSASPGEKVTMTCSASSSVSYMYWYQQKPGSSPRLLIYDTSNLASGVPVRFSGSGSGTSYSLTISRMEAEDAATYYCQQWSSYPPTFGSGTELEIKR : provide OD450
0.24

Hey, just so you know, these numbers are from patent US20250250357A1.
